All figures here come from patent US10251892B2.

target: UniProt P22607; experiment: FGFR Enzymatic Assay (peptide phosphorylation, FRET), FGFR3; type: biochemical; conditions: IC50 ratio showing FGFR3 selectivity; pre-incubated for 4 hours
measurement_kind: FGFR4/FGFR3

## Task API: value(readout= FGFR4/FGFR3, system= UniProt P22607, query= CCN1C(=O)N(c2c(F)c(OC)cc(OC)c2F)Cc2cnc(-c3ccc(CN4CC[C@H](C#N)C4)cc3)cc21 [Example 25] )
## Result >5

## Task API: value(readout= FGFR4/FGFR3, system= UniProt P22607, query= COc1cc(OC)c(F)c(N2Cc3cnc(-c4cn(C)nc4C)cc3N(Cc3nnc(C)o3)C2=O)c1F [Example 46] )
## Result >10

## Task API: value(readout= FGFR4/FGFR3, system= UniProt P22607, query= COc1cc(OC)c(F)c(N2Cc3cnc(-c4cn(C)nc4C)cc3N(c3ccc(F)c(C#N)c3)C2=O)c1F [Example 66] )
## Result >5

## Task API: value(readout= FGFR4/FGFR3, system= UniProt P22607, query= COc1cc(OC)c(F)c(N2Cc3cnc(-c4cn(C)nc4C)cc3N(c3ccc(F)c(F)c3)C2=O)c1F [Example 102] )
## Result >10

## Task API: value(readout= FGFR4/FGFR3, system= UniProt P22607, query= COc1cc(OC)c(F)c(N2Cc3cnc(-c4cnn(CCN5CCC(OC)C5)c4)cc3C3(CC3)C2=O)c1F (stereo not shown) [Example 161] )
## Result >3

## Task API: value(readout= FGFR4/FGFR3, system= UniProt P22607, query= COc1cc(OC)c(F)c(N2Cc3cnc(-c4cn(C)nc4C)cc3N(Cc3cc(C)no3)C2=O)c1F [Example 35] )
## Result >10

## Task API: value(readout= FGFR4/FGFR3, system= UniProt P22607, query= COc1cc(OC)c(F)c(N2Cc3cnc(-c4cn(Cc5cccnc5)nc4C)cc3C3(CC3)C2=O)c1F [Example 155] )
## Result >1

----------
Provide the recorded FGFR2/FGFR4 for the entries that follow.
target: FGFR4 (Homo sapiens (Human), UniProt P22455); assay: FGFR Enzymatic Assay (peptide phosphorylation, FRET), FGFR4; format: biochemical; settings: ratio of IC50 data showing FGFR4 selectivity; pre-incubated for 5 to 10 minutes
Sequence (P22455 22-802): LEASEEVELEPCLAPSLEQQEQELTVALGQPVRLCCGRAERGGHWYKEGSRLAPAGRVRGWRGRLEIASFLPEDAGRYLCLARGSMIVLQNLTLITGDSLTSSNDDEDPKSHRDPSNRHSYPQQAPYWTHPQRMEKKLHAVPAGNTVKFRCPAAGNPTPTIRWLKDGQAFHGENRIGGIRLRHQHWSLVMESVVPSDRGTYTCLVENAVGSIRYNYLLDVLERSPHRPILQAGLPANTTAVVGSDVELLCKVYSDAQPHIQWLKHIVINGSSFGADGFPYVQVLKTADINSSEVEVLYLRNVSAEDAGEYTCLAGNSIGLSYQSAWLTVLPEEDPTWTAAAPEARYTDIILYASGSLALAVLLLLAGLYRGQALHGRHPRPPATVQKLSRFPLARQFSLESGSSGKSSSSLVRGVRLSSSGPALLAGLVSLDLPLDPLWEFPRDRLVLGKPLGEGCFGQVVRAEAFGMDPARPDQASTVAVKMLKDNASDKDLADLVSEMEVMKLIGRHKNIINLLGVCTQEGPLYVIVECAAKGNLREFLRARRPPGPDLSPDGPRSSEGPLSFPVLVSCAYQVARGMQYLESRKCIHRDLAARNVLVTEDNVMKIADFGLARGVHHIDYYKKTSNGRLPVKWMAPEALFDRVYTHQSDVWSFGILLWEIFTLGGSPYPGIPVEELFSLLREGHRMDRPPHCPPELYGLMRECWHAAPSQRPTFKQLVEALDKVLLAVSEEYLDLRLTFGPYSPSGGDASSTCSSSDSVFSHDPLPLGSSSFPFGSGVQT

## Task Sample `COc1cc(OC)c(F)c(N2Cc3cnc(-c4cncc(NS(C)(=O)=O)c4)cc3C3(CC3)C2=O)c1F` — what was its FGFR2/FGFR4?
## Result >25

## Task Sample `COc1cc(OC)c(F)c(N2Cc3cnc(-c4cncc(N)c4)cc3C3(CC3)C2=O)c1F` — what was its FGFR2/FGFR4?
## Result >10

## Task Sample `COc1cc(OC)c(F)c(N2Cc3cnc(-c4cncc(S(=O)(=O)N5CCOCC5)c4)cc3C3(CC3)C2=O)c1F` — what was its FGFR2/FGFR4?
## Result >5

## Task Sample `COc1cc(OC)c(F)c(N2Cc3cnc(-c4cncc(C(=O)N5CCOCC5)c4)cc3C3(CC3)C2=O)c1F` — what was its FGFR2/FGFR4?
## Result >20

## Task Sample `COc1cc(OC)c(F)c(N2Cc3cnc(-c4cccnc4)cc3C3(CC3)C2=O)c1F` — what was its FGFR2/FGFR4?
## Result >1

## Task Sample `COc1cc(OC)c(F)c(N2Cc3cnc(-c4cc(N)c(F)cc4C)cc3C3(CC3)C2=O)c1F` — what was its FGFR2/FGFR4?
## Result >10

## Task Sample `COc1cc(OC)c(F)c(N2Cc3cnc(-c4cncc(CN5CCOCC5)c4)cc3C3(CC3)C2=O)c1F` — what was its FGFR2/FGFR4?
## Result >10

----------
target: FGFR3 enzyme (Homo sapiens (Human), UniProt P22607); test: FGFR Enzymatic Assay (peptide phosphorylation, FRET), FGFR3; assay type: biochemical; details: IC50 ratio showing FGFR3 selectivity; pre-incubated for 4 hours
Sequence (P22607 23-806): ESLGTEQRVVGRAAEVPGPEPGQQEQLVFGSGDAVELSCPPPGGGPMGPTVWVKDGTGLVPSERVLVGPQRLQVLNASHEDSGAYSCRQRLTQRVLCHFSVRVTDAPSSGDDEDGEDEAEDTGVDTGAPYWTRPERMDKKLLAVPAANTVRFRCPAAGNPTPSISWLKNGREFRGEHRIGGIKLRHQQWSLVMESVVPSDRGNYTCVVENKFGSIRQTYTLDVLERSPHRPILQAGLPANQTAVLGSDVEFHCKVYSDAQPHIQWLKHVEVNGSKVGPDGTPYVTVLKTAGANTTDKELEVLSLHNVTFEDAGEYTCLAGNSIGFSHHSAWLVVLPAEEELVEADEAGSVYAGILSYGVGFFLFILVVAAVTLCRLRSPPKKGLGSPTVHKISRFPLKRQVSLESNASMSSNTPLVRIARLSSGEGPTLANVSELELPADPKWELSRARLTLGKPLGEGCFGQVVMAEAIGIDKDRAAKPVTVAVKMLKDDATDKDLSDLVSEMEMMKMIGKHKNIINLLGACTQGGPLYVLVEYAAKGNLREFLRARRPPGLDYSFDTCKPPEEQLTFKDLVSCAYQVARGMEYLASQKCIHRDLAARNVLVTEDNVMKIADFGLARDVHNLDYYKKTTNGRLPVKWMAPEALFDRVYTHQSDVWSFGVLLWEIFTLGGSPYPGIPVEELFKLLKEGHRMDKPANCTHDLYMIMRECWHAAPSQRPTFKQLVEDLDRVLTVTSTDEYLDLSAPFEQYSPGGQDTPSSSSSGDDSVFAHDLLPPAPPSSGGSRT
measurement_kind: FGFR1/FGFR3

## Task Sample `COc1cc(OC)c(F)c(N2Cc3cnc(-c4cn(C)nc4C)cc3N(c3cncnc3)C2=O)c1F` — what was its FGFR1/FGFR3?
## Result >10

## Task Sample `CCN1C(=O)N(c2c(F)c(OC)cc(OC)c2F)Cc2cnc(-c3ccccc3)cc21` — what was its FGFR1/FGFR3?
## Result >5

## Task Sample `COc1cc(CN2C(=O)N(c3c(F)c(OC)cc(OC)c3F)Cc3cnc(-c4cn(C)nc4C)cc32)ccn1` — what was its FGFR1/FGFR3?
## Result >10

## Task Sample `COc1cc(OC)c(F)c(N2Cc3cnc(-c4cn(C)nc4C)cc3N(C(C)C)C2=O)c1F` — what was its FGFR1/FGFR3?
## Result >5

## Task Sample `COc1cc(OC)c(F)c(N2Cc3cnc(-c4cn(C)nc4C)cc3N(c3ccc4cn[nH]c4c3)C2=O)c1F` — what was its FGFR1/FGFR3?
## Result >3

## Task Sample `CCN1C(=O)N(c2c(F)c(OC)cc(OC)c2F)Cc2cnc(-c3ccc(C(N)=O)nc3)cc21` — what was its FGFR1/FGFR3?
## Result >5

## Task Sample `COc1cc(OC)c(F)c(N2Cc3cnc(-c4cn(CC#N)nc4C)cc3C3(CC3)C2=O)c1F` — what was its FGFR1/FGFR3?
## Result >5

## Task Sample `COc1cc(OC)c(F)c(N2Cc3cnc(-c4cn(C)nc4C)cc3N(c3cnccn3)C2=O)c1F` — what was its FGFR1/FGFR3?
## Result >5

----------
target: FGFR3 enzyme (Homo sapiens (Human), UniProt P22607); experiment: FGFR Enzymatic Assay (peptide phosphorylation, FRET), FGFR3; type: biochemical; settings: IC50 ratio showing FGFR3 selectivity; pre-incubated for 4 hours
measurement_kind: FGFR1/FGFR3

## Task Sample `CCn1cc(CN2C(=O)N(c3c(F)c(OC)cc(OC)c3F)Cc3cnc(-c4cn(C)nc4C)cc32)cn1` — what was its FGFR1/FGFR3?
## Result >10

## Task Sample `COc1cc(OC)c(F)c(N2Cc3cnc(-c4cn(CCC#N)nc4C)cc3C3(CC3)C2=O)c1F` — what was its FGFR1/FGFR3?
## Result >5

## Task Sample `COc1cc(OC)c(F)c(N2Cc3cnc(-c4cn(CC(=O)N5CCOCC5)nc4C)cc3C3(CC3)C2=O)c1F` — what was its FGFR1/FGFR3?
## Result >5

## Task Sample COc1cc(OC)c(F)c(N2Cc3cnc(-c4cnn(C5CCN(S(C)(=O)=O)C5)c4)cc3C3(CC3)C2=O)c1F (centres unmarked) — what was its FGFR1/FGFR3?
## Result >10

## Task Sample `COc1cc(OC)c(F)c(N2Cc3cnc(-c4cn(C)nc4C)cc3N(c3ccc4[nH]ncc4c3)C2=O)c1F` — what was its FGFR1/FGFR3?
## Result >3

## Task Sample `COc1cc(OC)c(F)c(N2Cc3cnc(-c4cn(C)nc4C)cc3N(Cc3nnc(C)o3)C2=O)c1F` — what was its FGFR1/FGFR3?
## Result >10

## Task Sample `COc1cc(OC)c(F)c(N2Cc3cnc(-c4cn(C)nc4C)cc3N(Cc3cnccn3)C2=O)c1F` — what was its FGFR1/FGFR3?
## Result >5

## Task Sample COc1cc(OC)c(F)c(N2Cc3cnc(-c4cn(C5CCN(CC#N)C5)nc4C)cc3C3(CC3)C2=O)c1F (centres unmarked) — what was its FGFR1/FGFR3?
## Result >5

## Task Sample `COc1cc(OC)c(F)c(N2Cc3cnc(-c4cn(C)nc4C)cc3N(Cc3cnn(CC#N)c3)C2=O)c1F` — what was its FGFR1/FGFR3?
## Result >5

## Task Sample `COc1cc(OC)c(F)c(N2Cc3cnc(-c4cn(C)nc4C)cc3N(c3ccc4ccncc4c3)C2=O)c1F` — what was its FGFR1/FGFR3?
## Result >10

## Task Sample `CCN1C(=O)N(c2c(F)c(OC)cc(OC)c2F)Cc2cnc(-c3ccc(C4(C#N)CCC4)nc3)cc21` — what was its FGFR1/FGFR3?
## Result >10

## Task Sample `COc1cc(OC)c(F)c(N2Cc3cnc(-c4ccc(C5(C#N)CCC5)nc4)cc3N(Cc3nnc(C)o3)C2=O)c1F` — what was its FGFR1/FGFR3?
## Result >10

## Task Sample `COc1cc(OC)c(F)c(N2Cc3cnc(-c4cn(C)nc4C)cc3N(c3ccn(C)n3)C2=O)c1F` — what was its FGFR1/FGFR3?
## Result >5

## Task Sample `COc1cc(OC)c(F)c(N2Cc3cnc(-c4cn(C)nc4C)cc3N(c3cc(F)cc(C#N)c3)C2=O)c1F` — what was its FGFR1/FGFR3?
## Result >5

## Task Sample `COc1cc(OC)c(F)c(N2Cc3cnc(-c4cn(C)nc4C)cc3N(c3ccc(CC#N)cc3)C2=O)c1F` — what was its FGFR1/FGFR3?
## Result >5

## Task Sample `COc1cc(OC)c(F)c(N2Cc3cnc(-c4cn(C)nc4C)cc3N(Cc3ccncc3)C2=O)c1F` — what was its FGFR1/FGFR3?
## Result >5

## Task Sample `COc1cccc(N2C(=O)N(c3c(F)c(OC)cc(OC)c3F)Cc3cnc(-c4cn(C)nc4C)cc32)c1` — what was its FGFR1/FGFR3?
## Result >3

## Task Sample `COc1cc(OC)c(F)c(N2Cc3cnc(-c4cn(C)nc4C)cc3N(Cc3ccncn3)C2=O)c1F` — what was its FGFR1/FGFR3?
## Result >5

## Task Sample `COc1cc(OC)c(F)c(N2Cc3cnc(-c4cnn(CC5CN(C(C)=O)C5)c4)cc3C3(CC3)C2=O)c1F` — what was its FGFR1/FGFR3?
## Result >3

## Task Sample `CNC(=O)c1ccc(-c2cc3c(cn2)CN(c2c(F)c(OC)cc(OC)c2F)C(=O)C32CC2)cc1` — what was its FGFR1/FGFR3?
## Result >5

## Task Sample `CCCn1cc(N2C(=O)N(c3c(F)c(OC)cc(OC)c3F)Cc3cnc(-c4cn(C)nc4C)cc32)cn1` — what was its FGFR1/FGFR3?
## Result >3

## Task Sample `COc1cc(OC)c(F)c(N2Cc3cnc(-c4cn(C)nc4C)cc3N(Cc3cc(C)on3)C2=O)c1F` — what was its FGFR1/FGFR3?
## Result >5

## Task Sample `COc1cc(OC)c(F)c(N2Cc3cnc(-c4cn(C)nc4C)cc3N(c3ccc4nc(C)oc4c3)C2=O)c1F` — what was its FGFR1/FGFR3?
## Result >5

## Task Sample `COc1cc(OC)c(F)c(N2Cc3cnc(-c4cncc(-n5ccnc5)c4)cc3C3(CC3)C2=O)c1F` — what was its FGFR1/FGFR3?
## Result >3

## Task Sample `COc1cc(OC)c(F)c(N2Cc3cnc(-c4cn(C)nc4C)cc3N(c3ccncn3)C2=O)c1F` — what was its FGFR1/FGFR3?
## Result >10

## Task Sample `COc1cc(OC)c(F)c(N2Cc3cnc(-c4cnn(CCN5CCC(OC)CC5)c4)cc3C3(CC3)C2=O)c1F` — what was its FGFR1/FGFR3?
## Result >5

## Task Sample `COc1cc(OC)c(F)c(N2Cc3cnc(-c4cn(C)nc4C)cc3N(c3cccnc3)C2=O)c1F` — what was its FGFR1/FGFR3?
## Result >5

## Task Sample `COc1cc(OC)c(F)c(N2Cc3cnc(-c4cn(C)nc4C)cc3N(c3cn[nH]c3)C2=O)c1F` — what was its FGFR1/FGFR3?
## Result >5

## Task Sample `CCN1C(=O)N(c2c(F)c(OC)cc(OC)c2F)Cc2cnc(-c3ccc(CC#N)cc3)cc21` — what was its FGFR1/FGFR3?
## Result >5
